Tested on: A-549
method: SRB colorimetric assay of cell growth and viability, A-549
Format: cell-based, human
condition_info: 48 hours exposure; read-out: LC50 A-549
Protocol: The finality of this assay is to interrupt the growth of a “in vitro” tumor cell culture by means a continued exhibition of the cells to the sample to be testing. […] Cells are seeded in 96 well microtiter plates, at 5×10^3 cells per well in aliquots of 195 μL medium, and they are allowed to attach to the plate surface by growing in drug free medium for 18 hours. […] Optical densities are read on a automated spectrophotometric plate reader at a single wavelength of 490 nm. […]
Where a SMILES comes first, the peptide text is derived from it. Bridges are numbered along the chain shown (N, C = ends). [ ]: non-standard residue; d: D form. The star is where a group is joined. d(aIle) = CC[C@H](C)[C@@H](N)C(=O)O; d(aThr) = C[C@@H](O)[C@@H](N)C(=O)O; Hexanoyl(5-Me) = CC(C)CCCC(=O)*; Orn = NCCC[C@H](N)C(=O)O; Dhb = C/C=C(\N)C(=O)O
readout_name: CC50

[
  {
    "molecule": "C/C=C1\\NC(=O)[C@H](Cc2ccccc2)NC(=O)[C@@H](C(C)C)NC(=O)[C@@H]([C@@H](C)CC)NC(=O)[C@H](NC(=O)[C@H](NC(=O)[C@H](CCCN)NC(=O)[C@H]2CCCN2C(=O)[C@H](NC(=O)[C@@H](NC(=O)[C@@H](NC(=O)[C@@H](CC2CCCCC2)NC(=O)CCCC(C)C)[C@@H](C)O)C(C)C)C(C)C)[C@@H](C)CC)[C@@H](C)OC(=O)[C@H](C(C)C)NC1=O [Compound 8, [D-Cha^13]-KF]",
    "observed": "6.53 µM"
  },
  {
    "molecule": "C/C=C1\\NC(=O)[C@H](Cc2ccccc2)NC(=O)[C@@H](C(C)C)NC(=O)[C@@H]([C@@H](C)CC)NC(=O)[C@H](NC(=O)[C@H](NC(=O)[C@H](CCCN)NC(=O)[C@H]2CCCN2C(=O)[C@H](NC(=O)CNC(=O)[C@@H](NC(=O)[C@H](NC(=O)CCCC(C)C)C(C)C)[C@@H](C)O)C(C)C)[C@@H](C)CC)[C@@H](C)OC(=O)[C@H](C(C)C)NC1=O [Compound 42, [Gly^11]-KF] ({Hexanoyl(5-Me)}-[dV]TG[dV][dP][Orn][d(aIle)][d(aThr)][d(aIle)][dV]F[Dhb]V; ester 8-C)",
    "observed": "6.96 µM"
  }
]

* * *

// reported TGI DU-145 per item
Tested on: DU-145
method: SRB colorimetric assay of cell growth and viability, DU-145
Type: cell-based, human
condition_info: DU-145; 48 hours exposure
Description: The finality of this assay is to interrupt the growth of a “in vitro” tumor cell culture by means a continued exhibition of the cells to the sample to be testing. […] Cells are seeded in 96 well microtiter plates, at 5×10^3 cells per well in aliquots of 195 μL medium, and they are allowed to attach to the plate surface by growing in drug free medium for 18 hours. […] Optical densities are read on a automated spectrophotometric plate reader at a single wavelength of 490 nm. […]
Where a SMILES comes first, the peptide text is derived from it. Bridges are numbered along the chain shown (N, C = ends). [ ]: non-standard residue; d: D form. The star is where a group is joined. 2Nal = N[C@@H](Cc1ccc2ccccc2c1)C(=O)O; d(aIle) = CC[C@H](C)[C@@H](N)C(=O)O; d(aThr) = C[C@@H](O)[C@@H](N)C(=O)O; Hexanoyl(5-Me) = CC(C)CCCC(=O)*; Phg = N[C@H](C(=O)O)c1ccccc1; Orn = NCCC[C@H](N)C(=O)O; Dhb = C/C=C(\N)C(=O)O

[
  {
    "compound": "C/C=C1\\NC(=O)[C@H](c2ccccc2)NC(=O)[C@@H](C(C)C)NC(=O)[C@@H]([C@@H](C)CC)NC(=O)[C@H](NC(=O)[C@H](NC(=O)[C@H](CCCN)NC(=O)[C@H]2CCCN2C(=O)[C@H](NC(=O)[C@@H](NC(=O)[C@@H](NC(=O)[C@H](NC(=O)CCCC(C)C)C(C)C)[C@@H](C)O)C(C)C)C(C)C)[C@@H](C)CC)[C@@H](C)OC(=O)[C@H](C(C)C)NC1=O [Compound 87, [Phg^3]-KF] ({Hexanoyl(5-Me)}-[dV]TV[dV][dP][Orn][d(aIle)][d(aThr)][d(aIle)][dV][Phg][Dhb]V; ester 8-C)",
    "target_under_test": "DU-145",
    "TGI DU-145, Molar": "1.90E−06"
  },
  {
    "compound": "C/C=C1\\NC(=O)[C@H](Cc2ccc3ccccc3c2)NC(=O)[C@@H](C(C)C)NC(=O)[C@@H]([C@@H](C)CC)NC(=O)[C@H](NC(=O)[C@H](NC(=O)[C@H](CCCN)NC(=O)[C@H]2CCCN2C(=O)[C@H](NC(=O)[C@@H](NC(=O)[C@@H](NC(=O)[C@H](NC(=O)CCCC(C)C)C(C)C)[C@@H](C)O)C(C)C)C(C)C)[C@@H](C)CC)[C@@H](C)OC(=O)[C@H](C(C)C)NC1=O [Compound 85, [Nal^3]-KF] ({Hexanoyl(5-Me)}-[dV]TV[dV][dP][Orn][d(aIle)][d(aThr)][d(aIle)][dV][2Nal][Dhb]V; ester 8-C)",
    "target_under_test": "DU-145",
    "TGI DU-145, Molar": "2.53E−07"
  },
  {
    "compound": "C/C=C1\\NC(=O)[C@H](Cc2ccccc2)NC(=O)[C@@H](C(C)C)NC(=O)[C@@H]([C@@H](C)CC)NC(=O)[C@H](NC(=O)[C@H](NC(=O)[C@H](CCCN)NC(=O)[C@H]2CCCN2C(=O)[C@H](NC(=O)[C@@H](NC(=O)[C@H](CCCN)NC(=O)[C@H](NC(=O)CCCC(C)C)C(C)C)C(C)C)C(C)C)[C@@H](C)CC)[C@@H](C)OC(=O)[C@H](C(C)C)NC1=O [Compound 116, [Orn^12]-KF] ({Hexanoyl(5-Me)}-[dV][Orn]V[dV][dP][Orn][d(aIle)][d(aThr)][d(aIle)][dV]F[Dhb]V; ester 8-C)",
    "target_under_test": "DU-145",
    "TGI DU-145, Molar": "6.71E−06"
  }
]

* * *

System: K-562
method: SRB colorimetric assay of cell growth and viability, K-562
Type: cell-based, human
condition_info: 48 hours exposure; read-out: LC50 K-562
Where a SMILES comes first, the peptide text is derived from it. Bridges are numbered along the chain shown (N, C = ends). [ ]: non-standard residue; d: D form. The star is where a group is joined. d(aIle) = CC[C@H](C)[C@@H](N)C(=O)O; d(aThr) = C[C@@H](O)[C@@H](N)C(=O)O; Hexanoyl(5-Me) = CC(C)CCCC(=O)*; Orn = NCCC[C@H](N)C(=O)O; Dhb = C/C=C(\N)C(=O)O
A collection of molecules and their measured CC50
readout_name: CC50 (µM)

[
  {
    "molecule": "C/C=C1\\NC(=O)[C@H](Cc2ccccc2)NC(=O)[C@@H](C(C)C)NC(=O)[C@@H]([C@@H](C)CC)NC(=O)[C@H](NC(=O)[C@H](NC(=O)[C@H](CCCN)NC(=O)[C@H]2CCCN2C(=O)[C@H](NC(=O)[C@@H](NC(=O)[C@@H](NC(=O)[C@H]2CCCN2C(=O)CCCC(C)C)[C@@H](C)O)C(C)C)C(C)C)[C@@H](C)CC)[C@@H](C)OC(=O)[C@H](C(C)C)NC1=O [Compound 37, [D-Pro^13]-KF]",
    "observed": 3.2
  },
  {
    "molecule": "C/C=C1\\NC(=O)[C@H](Cc2ccccc2)NC(=O)[C@@H](C(C)C)NC(=O)[C@@H]([C@@H](C)CC)NC(=O)[C@H](NC(=O)[C@H](NC(=O)[C@H](CCCN)NC(=O)[C@H]2CCCN2C(=O)[C@H](NC(=O)[C@@H]2CCCN2C(=O)[C@@H](NC(=O)[C@H](NC(=O)CCCC(C)C)C(C)C)[C@@H](C)O)C(C)C)[C@@H](C)CC)[C@@H](C)OC(=O)[C@H](C(C)C)NC1=O [Compound 47, [Pro^11]-KF] ({Hexanoyl(5-Me)}-[dV]TP[dV][dP][Orn][d(aIle)][d(aThr)][d(aIle)][dV]F[Dhb]V; ester 8-C)",
    "observed": 6.78
  },
  {
    "molecule": "C/C=C1\\NC(=O)[C@H](Cc2ccccc2)NC(=O)[C@@H](C(C)C)NC(=O)[C@@H]([C@@H](C)CC)NC(=O)[C@H](NC(=O)[C@H](NC(=O)[C@H](CCCCN)NC(=O)[C@H]2CCCN2C(=O)[C@H](NC(=O)[C@@H](NC(=O)[C@@H](NC(=O)[C@H](NC(=O)CC[C@@H](C)CC)C(C)C)[C@@H](C)O)C(C)C)C(C)C)[C@@H](C)CC)[C@@H](C)OC(=O)[C@H](C(C)C)NC1=O [Compound 30, [Lys^8, (4S)-MeHex^14]-KF]",
    "observed": 5.07
  },
  {
    "molecule": "C/C=C1\\NC(=O)[C@H](Cc2ccccc2)NC(=O)[C@@H](C(C)C)NC(=O)[C@@H]([C@@H](C)CC)NC(=O)[C@H](NC(=O)[C@H](NC(=O)[C@H](CCCN)NC(=O)[C@H]2CCCN2C(=O)[C@H](NC(=O)[C@@H](NC(=O)[C@@H](NC(=O)[C@@H](CCC(N)=O)NC(=O)CCCC(C)C)[C@@H](C)O)C(C)C)C(C)C)[C@@H](C)CC)[C@@H](C)OC(=O)[C@H](C(C)C)NC1=O [Compound 40, [D-Gln^13]-KF]",
    "observed": 4.42
  },
  {
    "molecule": "C/C=C1\\NC(=O)[C@H](Cc2ccccc2)NC(=O)[C@@H](C(C)C)NC(=O)[C@@H]([C@@H](C)CC)NC(=O)[C@H](NC(=O)[C@H](NC(=O)[C@H](CCCN)NC(=O)[C@H]2CCCN2C(=O)[C@H](NC(=O)[C@@H](NC(=O)[C@@H](NC(=O)[C@H](NC(=O)CCCCC(C)=O)C(C)C)[C@@H](C)O)C(C)C)C(C)C)[C@@H](C)CC)[C@@H](C)OC(=O)[C@H](C(C)C)NC1=O [Compound 27, [6-OHep^14]-KF]",
    "observed": 6.7
  }
]
